Source listed as the RNAGym collection of RNA variant scans (doi:10.1101/gr.219683.116).

B1: mRNA-splicing (parent)
chain: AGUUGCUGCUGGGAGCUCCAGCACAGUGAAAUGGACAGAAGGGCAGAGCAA

- Variants of: B1
- assay_overview: exon inclusion enrichment index; higher = more inclusion; WT1 exon 5 minigene, HEK293

{"columns": ["mutation_annotation", "exon inclusion enrichment index"],
 "data": [
  ["A35U C36G", 0.00845],
  ["G5A C6U U7A G8U C9A A30U A31G", 0.0609],
  ["C6A U7C C9A U10C G28U A29G", 3.18],
  ["U4C G5A C6U U7A G8U C9A", 0.47],
  ["C6A U7A C9A U10A G42C", 1.99],
  ["G5A U7C G8A U10C G15C", 2.72],
  ["G5A U7C G8A U10C A39U A40C", 2.41],
  ["G43A C44A", 0.778],
  ["G5A U7C G8A U10C A35U C36A", 0.00832],
  ["G5C C6U G8C C9U U10C G13C A14C", 1.15],
  ["G5U C6U U7A C9A U10A", 0.0191],
  ["C6A U7A C9A U10A G11U G12C", 2.55],
  ["G5C C6U G8C C9U U10C A47U G48A", 1.58],
  ["G5A C6U U7A G8U C9A A40G G41A", 0.0181],
  ["G5C C6A U7C G8A U10A G26A U27G", 0.258],
  ["U32C G33A", 0.0354],
  ["G5A U7C G8A U10C G38U A39C", 1.83],
  ["G5A C6G U7G C9A G41U G42C", 0.00698],
  ["G5C C6U G8C C9U U10C A29G A30G", 1.37],
  ["C6A U7C C9A U10C G26U U27C", 4],
  ["C6A U7A C9A U10A G41U G42C", 1.58],
  ["C6A U7C G8U C9G U10C", 1.91],
  ["G5U G8U C9U A29C A30U", 0.0831],
  ["G5C C6U G8C C9U U10C A39C A40C", 2.43],
  ["G5C C6A U7C G8A U10A A29G A30C", 0.0319],
  ["C6A U7A C9A U10A G41C G42U", 2.17],
  ["U4G", 0.0792],
  ["G5A C6U U7A G8U C9A A40U G41C", 0.359],
  ["G5U G8U C9U A40C", 0.385],
  ["G5C C6U G8C C9U U10C U27A G28C", 2.07],
  ["G5A C6G U7G G8A U10C", 0.159],
  ["G5A C6U U7A G8U C9A U32G G33U", 0.0122],
  ["G5C C6A U7C G8A U10A C16A U17C", 0.0679],
  ["G5C C6U G8C C9U U10C A45C G46A", 1.12],
  ["G5A C6U U7A G8U C9A G11C G12A", 0.0128],
  ["G5C C6G U7C U10C A45U G46C", 2.33],
  ["U3G U4A G5A C6G U7G C9A", 0.0126],
  ["G5C C6G U7C U10C G43C C44G", 6.55],
  ["C6A U7C C9A U10C U17C C18G", 3.74],
  ["G5A C6G", 0.00371],
  ["G5C C6G U7C U10C G11C", 2.92],
  ["G5C C6G U7C C9G U10G", 0.749],
  ["A29C", 0.0903],
  ["G5C C6A U7C G8A U10A A31U U32A", 0.00816],
  ["G5A C6U U7A G8U C9A G43C C44A", 0.403],
  ["G5A C6U U7A G8U C9A G12C", 0.0374],
  ["G5A C6U U7A G8U C9A A39G", 0.00842],
  ["C6A U7C C9A U10C G41C G42U", 3.52],
  ["G5A U7C G8A U10C A37U", 1.97],
  ["U3C", 0.011],
  ["G5A C6U U7A G8U C9A U32G G33C", 0.0522],
  ["G5C C6A U7C G8A U10A A47U", 0.108],
  ["G5A C6U U7C C9A", 1.32],
  ["A39G A40G", 0.0122],
  ["C6A U7C C9A U10C A45U G46C", 2.51],
  ["G5C C6G U7C U10C C18U", 3.14],
  ["G5U G8U C9U G12C G13U", 0.0014],
  ["G5A C6U U7A G8U C9A C22U", 0.0424],
  ["G5U G8U C9U G13A", 0.0771],
  ["G5C C6G U7C U10C U27G G28A", 3.58],
  ["G5A U7C G8A U10C A45C G46U", 1.12],
  ["C6A U7A C9A U10A G41C G42A", 1],
  ["C6A U7A C9A U10A A40U G41A", 0.0256],
  ["C6A U7G G8A C9A U10A", 0.0362],
  ["G5C C6G U7C U10C C24A A25C", 4.48],
  ["A45U G46A", 0.0722],
  ["G5C C6G U7C U10C G33U", 1.79],
  ["G5U G8U C9U G46A", 0.192],
  ["G5C C6G U7C U10C U32C G33C", 3.68],
  ["G5C C6U G8C C9U U10C A47C G48A", 1.12],
  ["G5A C6G U7G C9A C22U A23C", 0.000879],
  ["G5A C6G U7G C9A G48U", 0.00708],
  ["C6A U7C C9A U10C G11U", 3.07],
  ["G5U G8U C9U A31G U32C", 0.678],
  ["G5A U7C G8A U10C G41A G42C", 2.53],
  ["G5C C6G U7C U10C G26U U27G", 3.98],
  ["C6A U7A C9A U10A A47U G48U", 0.748],
  ["U3A G5C C6U G8C C9U U10C", 2.74],
  ["C6A U7C C9A U10C A39G A40U", 0.497],
  ["G5A U7C G8A U10C C19A", 1.39],
  ["C6A U7C C9A U10C C44A A45U", 5.42],
  ["G5C C6A U7C G8A U10A U32A G33U", 0.0392],
  ["G5A C6U U7A G8U C9A G41U G42C", 0.226],
  ["G5C C6A U7C G8A U10A C44G", 0.198],
  ["G5A U7C G8A U10C C24A A25U", 2.06],
  ["G5A C6U U7A G8U C9A C16A U17C", 0.0702],
  ["G5C C6U G8C C9U U10C A47G", 0.327],
  ["G5A C6G U7G C9A C44G", 0.00206],
  ["G5A C6U U7A G8U C9A G34A", 0.0272],
  ["G5A C6G U7G C9A G41A G42C", 0.0072],
  ["G5C C6U U7C G8A U10C", 1.77]
]}
